- Assay Method Text: PK study after intranasal administration
- Type: in vivo, mice
- Experimental Conditions: female, Crl:CDI (ICR), mouse, plasma, inhaled or intranasal, 162 ug
Readout: AUC (ng·h/mL)
Provide only the numeric value, understood in ng·h/mL.

Query CSc1cc(C)nc(SC)c1NC(=O)CN1CCN(CCSc2nc3ccccc3[nH]2)CC1.Cl yields AUC of 345

* * *

- Assay Method Text: PK study after intranasal administration
- Format: in vivo, mice
- Experimental Conditions: female, ICR, mouse, cerebrum, inhaled or intranasal, 32.4 ug
Readout: Tmax at 7 days (min)
Provide only the numeric value, understood in min.

Query CSc1cc(C)nc(SC)c1NC(=O)CN1CCN(CCSc2nc3ccccc3[nH]2)CC1.Cl [K-604] yields Tmax at 7 days of 5
